- measurement-target: dopaminergic D2 receptor (Homo sapiens)
- Sequence (P14416 1-414 isoform P14416-2): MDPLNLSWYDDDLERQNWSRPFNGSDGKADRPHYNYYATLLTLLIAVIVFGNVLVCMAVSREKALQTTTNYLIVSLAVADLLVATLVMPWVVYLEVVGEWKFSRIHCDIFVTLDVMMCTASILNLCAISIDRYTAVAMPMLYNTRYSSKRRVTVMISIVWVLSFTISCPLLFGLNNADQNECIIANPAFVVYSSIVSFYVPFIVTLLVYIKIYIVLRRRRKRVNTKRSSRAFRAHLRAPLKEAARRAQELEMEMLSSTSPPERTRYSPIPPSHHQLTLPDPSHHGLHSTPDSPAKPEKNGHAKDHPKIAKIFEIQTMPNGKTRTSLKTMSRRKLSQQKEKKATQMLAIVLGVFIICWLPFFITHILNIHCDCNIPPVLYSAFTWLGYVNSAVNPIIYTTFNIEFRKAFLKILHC
- method-notes: Binding assay D2S (h), [3H]methyl-spiperone, HEK-293 cells
- Parameters: expressed in transfected cells; host or cells: HEK-293 cells
- test-settings: read-out: D2 [%]
metric: inhibition at 1 µM (%)
The reply should be a number in %, with the unit left off.

- compound: "Cc1cccc(S(=O)(=O)NCCCCN2CCN(c3cccc4c3OCCO4)CC2)c1 [Compound 395]"
  measurement-target: "dopaminergic D2 receptor (Homo sapiens)"
  unit-text: "%"
  inhibition at 1 µM: 61
- compound: "O=S(=O)(NCCCN1CCN(c2nsc3ccccc23)CC1)c1ccc(C(F)(F)F)cc1 [Compound 257]"
  measurement-target: "dopaminergic D2 receptor (Homo sapiens)"
  unit-text: "%"
  inhibition at 1 µM: 99
- compound: "O=c1[nH]c2cccc(N3CCN(CCCNS(=O)(=O)c4cccc(F)c4)CC3)c2[nH]1 [Compound 176]"
  measurement-target: "dopaminergic D2 receptor (Homo sapiens)"
  unit-text: "%"
  inhibition at 1 µM: 89
- compound: "O=S(=O)(NCCCCN1CCN(c2nsc3ccccc23)CC1)c1ccc2cn[nH]c2c1 [Compound 244]"
  measurement-target: "dopaminergic D2 receptor (Homo sapiens)"
  unit-text: "%"
  inhibition at 1 µM: 105
- compound: "O=S(=O)(NCCCN1CCC(c2noc3cc(F)ccc23)CC1)c1ccc2cn[nH]c2c1 [Compound 352]"
  measurement-target: "dopaminergic D2 receptor (Homo sapiens)"
  unit-text: "%"
  inhibition at 1 µM: 100

Which inhibition at 1 µM value is on record for O=S(=O)(NCCCCN1CCN(c2noc3ccccc23)CC1)c1cccc2ccccc12 [Compound 13] ?
99

Which inhibition at 1 µM value is on record for O=S(=O)(NCCCCN1CCC(c2noc3cc(F)ccc23)CC1)c1ccc(F)c(Cl)c1 [Compound 299] ?
87

Which inhibition at 1 µM value is on record for O=S(=O)(NCCCN1CCN(c2nsc3ccccc23)CC1)c1ccc2cn[nH]c2c1 [Compound 268] ?
98

* * *

- measurement-target: serotoninergic 5-HT6 receptor (Homo sapiens, UniProt P50406)
- Sequence (P50406 whole entry): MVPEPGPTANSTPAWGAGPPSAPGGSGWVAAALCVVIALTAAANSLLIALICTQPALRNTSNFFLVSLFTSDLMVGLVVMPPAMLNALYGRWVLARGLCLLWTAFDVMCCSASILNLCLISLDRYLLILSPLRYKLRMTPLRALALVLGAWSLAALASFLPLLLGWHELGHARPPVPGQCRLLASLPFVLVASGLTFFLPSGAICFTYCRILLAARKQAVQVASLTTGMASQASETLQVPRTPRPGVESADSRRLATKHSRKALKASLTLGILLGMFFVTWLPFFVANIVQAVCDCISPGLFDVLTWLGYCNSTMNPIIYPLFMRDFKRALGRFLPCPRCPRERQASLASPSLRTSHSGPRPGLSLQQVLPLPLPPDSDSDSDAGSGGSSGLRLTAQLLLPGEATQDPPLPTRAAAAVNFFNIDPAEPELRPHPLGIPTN
- method-notes: Cellular functional assay, serotoninergic 5-HT6 receptor (agonism/antagonism)
- Assay type: cell-based
- test-settings: agonist effect, percent of control specific agonist response; compounds tested at 1×10^−6M; read-out: 5-HT6-ag [%]
metric: activation at 1 µM
Provide a numeric answer, followed by its unit.

- smiles-string: "O=S(=O)(NCCCCN1CCN(c2nsc3ccccc23)CC1)c1csc2ccccc12"
  activation at 1 µM: "-2%"
- smiles-string: "O=S(=O)(NCCCCN1CCN(c2nsc3ccccc23)CC1)c1cccc2ccccc12"
  activation at 1 µM: "1%"
- smiles-string: "O=c1[nH]c2ccc(S(=O)(=O)NCCN3CCN(c4nsc5ccccc45)CC3)cc2o1"
  activation at 1 µM: "-1%"
- smiles-string: "Cc1c(S(=O)(=O)NCCCCN2CCC(c3noc4cc(F)ccc34)CC2)sc2ccc(F)cc12"
  activation at 1 µM: "-2%"
- smiles-string: "O=S(=O)(NCCCCN1CCC(c2noc3cc(F)ccc23)CC1)c1cc2ccccc2s1"
  activation at 1 µM: "-1%"
- smiles-string: "Cc1c(S(=O)(=O)NCCCCN2CCN(c3noc4ccccc34)CC2)sc2ccc(F)cc12"
  activation at 1 µM: "1%"
- smiles-string: "O=S(=O)(NCCCCN1CCN(c2noc3ccccc23)CC1)c1c[nH]c2ncccc12"
  activation at 1 µM: "0%"
- smiles-string: "Cc1cccc(S(=O)(=O)NCCN2CCN(c3nsc4ccccc34)CC2)c1"
  activation at 1 µM: "-1%"
- smiles-string: "O=c1[nH]c2ccc(S(=O)(=O)NCCCCN3CCN(c4nsc5ccccc45)CC3)cc2o1"
  activation at 1 µM: "-1%"
- smiles-string: "O=S(=O)(NCCN1CCN(c2nsc3ccccc23)CC1)c1cccc2ccccc12"
  activation at 1 µM: "0%"

Which activation at 1 µM value is on record for O=S(=O)(NCCCCN1CCC(c2noc3cc(F)ccc23)CC1)c1cccc2ccccc12 ?
2%

Which activation at 1 µM value is on record for Cc1cccc(S(=O)(=O)NCCN2CCC(c3noc4cc(F)ccc34)CC2)c1 ?
0%

Which activation at 1 µM value is on record for O=S(=O)(NCCCN1CCC(c2noc3cc(F)ccc23)CC1)c1ccc2cn[nH]c2c1 ?
-2%

The origin of these recorded values is patent US8822517B2.
